Experiment: Pharmacokinetic studies in mice (IV and PO)
Assay type: in vivo
Conditions: mouse, plasma, PO 10 mg/kg
MEASURED ATTRIBUTE: AUC(0-inf) (ng·h/mL)
Number only, in ng·h/mL; omit the unit.

Q: Look up AUC(0-inf) for this compound: CO[C@H]1C2=C[C@@H](C2)[C@H](C)[C@@H](C)S(=O)(=O)NC(=O)c2ccc3c(c2)N(C[C@@H]2CC[C@H]21)C[C@@]1(CCCc2c1ccc(Cl)c2F)CO3 (single isomer, unassigned) [Cpd. No. 17 (isomer 1)]
Ans: 70700

Q: Now try CO[C@H]1C2=C[C@@H](C2)[C@H](C)[C@@H](C)S(=O)(=O)NC(=O)c2ccc3c(c2)N(C[C@@H]2CC[C@H]21)C[C@@]1(CCCc2cc(Cl)ccc21)CO3 (single isomer, unassigned) [Cpd. No. 15 (isomer 1)] .
Ans: 33300

Q: Cool, now CO[C@H]1C2=CC(C2)[C@H](C)CS(=O)(=O)NC(=O)c2ccc3c(c2)N(C[C@@H]2CC[C@H]21)C[C@@]1(CCCc2cc(Cl)ccc21)CO3 (single isomer, unassigned) [Cpd. No. 14 (Isomer 1)]
Ans: 31800

Q: Also COCCO[C@H]1C2=CC(C2)[C@H](C)[C@@H](C)S(=O)(=O)NC(=O)c2ccc3c(c2)N(C[C@@H]2CC[C@H]21)C[C@@]1(CCCc2cc(Cl)ccc21)CO3 (mixture of isomers) [16 (mixture)] , if possible.
Ans: 8620

Q: For CO[C@H]1C2=CC(C)(C2)[C@H](C)CS(=O)(=O)NC(=O)c2ccc3c(c2)N(C[C@@H]2CC[C@H]21)C[C@@]1(CCCc2cc(Cl)ccc21)CO3 (mixture of isomers) [13 (mixture)] then?
Ans: 14900

----------
Test system: NCI-H929 cells
Test: Cell viability assay (NCI-H929 cells), CCK-8
Assay type: cell-based
Settings: Homo sapiens, NCI-H929, 24 h, 5% FBS
pIC50: −log10 of the molar value.
We use 7 as the dividing line for pIC50: on or above the line is Y, below is N.

Q: Identify whether the reported pIC50 of the following molecule is 7 or greater: C[C@@H]1[C@@H](C)S(=O)(=O)NC(=O)c2ccc3c(c2)N(C[C@@H]2CC[C@H]2[C@@H](OCCN2CCN(C4CCOCC4)CC2)C2=C[C@H]1C2)C[C@@]1(CCCc2c1ccc(Cl)c2F)CO3
Ans: Y

Q: Same lookup for C[C@@H]1[C@@H](C)S(=O)(=O)NC(=O)c2ccc3c(c2)N(C[C@@H]2CC[C@H]2[C@](O)(CN2CCN4CCOC[C@@H]4C2)C2=C[C@H]1C2)C[C@@]1(CCCc2c1ccc(Cl)c2F)CO3 , please.
Ans: Y

Q: Could you do the same for CO[C@H]1C2=C[C@@H](C2)[C@H](C)N(C[C@@H]2CCCO2)S(=O)(=O)NC(=O)c2ccc3c(c2)N(C[C@@H]2CC[C@H]21)C[C@@]1(CCCc2cc(Cl)ccc21)CO3 (single isomer, unassigned) [30 (isomer 3)] , please?
Ans: N

Q: Also check CO[C@@]1(CN(C)C(C)=O)C2=C[C@@H](C2)[C@H](C)[C@@H](C)S(=O)(=O)NC(=O)c2ccc3c(c2)N(C[C@@H]2CC[C@H]21)C[C@@]1(CCCc2c1ccc(Cl)c2F)CO3
Ans: Y
